We begin with a simple list: items and their reported composite z-score.
measurement notes: small-molecule microarray binders of probe aCHRDL2, primary screen, biochemical, biotinylated probe, 635/667 nm fluorescence (AID 1100)
condition parameters: higher = more signal
Lab note: record just the number, no unit beside it.

Req: Can you look up the measured composite z-score of COc1cc2c(cc1OC)CN(C(=O)[C@@H]1[C@H]3C(=O)O[C@H](c4ccccc4)[C@H](c4ccccc4)N3[C@H](c3ccc(O)cc3)[C@@]13C(=O)Nc1ccc(C#CCCO)cc13)CC2 for me?
Resp: 0.562

Req: Which composite z-score value belongs to C=CC[C@H](OC(=O)Nc1ccc(SC)cc1)c1ccc(OCCO)cc1 ?
Resp: 0.799

Req: What value of measured composite z-score is listed for COc1cc(NN2C(C(O)C3CCCCC3)C=CC3C(=O)N(C)C(=O)C32)cc(OC)c1OC (configuration not stated) ?
Resp: 1.1

---
Req: Bench note: what composite z-score did COc1ccc([Si](C)(C)[C@@H]2[C@@H](CC(=O)N3Cc4ccccc4C[C@H]3CO)O[C@]3(C(=O)N(Cc4ccc(N5CCC5=O)cc4)c4ccccc43)[C@H]2C)cc1 show?
Resp: -0.1

Req: Need composite z-score of CN1C(=O)C2C(C1=O)C1C=C(CCCO)C2C(C2CC2)N1Cc1cc2c(cc1Br)OCO2 (configuration not stated) , thanks.
Resp: 0.288

Req: Returns the measured composite z-score for the input compound. Input: COc1ccc(C(=O)Nc2cccc(CN3C(=O)[C@]4(O[C@H](CCn5cc([C@H](O)c6ccccc6)nn5)[C@@H]([Si](C)(C)c5ccc(OC)cc5)[C@@H]4C)c4ccccc43)c2)cc1
Resp: 0.265

Req: Please give the measured composite z-score for this compound: Cc1ccc(S[C@]2(C(=O)NC(C)C)CC(=O)N(C(C)C)[C@@H]2c2ccc(CO)cc2I)cc1
Resp: 0.706

----------
Below, each entry is listed with its recorded composite z-score.
Test system: Neuregulin-1 EGF-like domain
measurement notes: binders of neuregulin-1 EGF-like domain, primary screen, biochemical, small-molecule microarray, 635 nm fluorescence (AID 1081);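 further: binding of the protein to compounds printed on small-molecule microarray slides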
condition parameters: small-molecule microarray binding, higher = more signal
Reply with the value as a number alone.

Before answering, review these 3 worked examples.
Req: Value lookup for composite z-score; key = O=C1C2C=CC(C(O)c3cc(C(F)(F)F)cc(C(F)(F)F)c3)N(Nc3ccccc3F)C2C(=O)N1c1ccccc1 (stereo not given)
Resp: 1.16

Req: Suppose we examine the compound CN(C)C(=O)[C@@]1(Cc2ccccc2N=[N+]=[N-])N=C(c2ccc(OCCCO)cc2)O[C@H]1c1ccccc1 ; what composite z-score value has been reported?
Resp: 1.32

Req: Which composite z-score is reported for this compound? COC(=O)C1N=C(c2ccc(OCCCO)cc2)N(c2ccccc2)O1 (stereo not given)
Resp: 0.913

More entries:
Req: I have this compound here, CCOC(=O)C1=C[C@@H](C(C)(C)C)N(S(=O)(=O)c2ccc(C)cc2)[C@H]1c1ccccc1 , and I need its recorded composite z-score.
Resp: 0.954

Req: Request the reported composite z-score associated with Cc1cccc([C@H]2C[C@H]3C(Br)=C[C@@H]2C(=O)[C@]32CO2)c1
Resp: -0.779

----------
study system: Follistatin (Homo sapiens)
measurement notes: follistatin binders on small-molecule microarrays, primary screen, biochemical, small-molecule microarray, 635/667 nm fluorescence (AID 1132)
condition parameters: FST binding, 635 nm fluorescence, higher = more signal
readout name: composite z-score
Form rule: numeric answer, no unit written next to it.

Req: Form entry - test system: Follistatin (Homo sapiens); read-out: composite z-score; compound: C[C@]1(C(=O)NCCN2CCOCC2)c2ccccc2C(=O)N(Cc2cc(F)cc(C(F)(F)F)c2)[C@H]1c1ccc(CO)cc1
Resp: 0.89

Further cases:
Req: // map COc1cc(CO)cc(I)c1O[C@H]1C=C(C(=O)NCCO)C[C@@H](NCC2CCCCC2)[C@@H]1O to recorded composite z-score (system: Follistatin (Homo sapiens))
Resp: 0.521

Req: Return composite z-score measured with Follistatin (Homo sapiens) given this compound: CC(C)[Si]1(C(C)C)OCc2cc(-c3ccc(-c4ccc(Cl)c(Cl)c4)o3)nc(CCc3ccccc3)c21
Resp: -0.0289

Req: Identify the measured composite z-score of [N-]=[N+]=NCc1ccccc1[C@@H]1OC(c2ccc(OCCCO)cc2)=N[C@]1(Cc1ccccc1N=[N+]=[N-])C(=O)NCCN1CCOCC1 for Follistatin (Homo sapiens).
Resp: 1.39

Req: Find composite z-score (Follistatin (Homo sapiens)) for the entry COCCOC(=O)N1C(=O)[C@@]2(c3cc(C#CCCO)ccc31)[C@H](c1ccccc1OCCO)N1[C@H](c3ccccc3)[C@H](c3ccccc3)OC(=O)[C@H]1[C@@H]2C(=O)N1CCCCCCC1
Resp: 1.39

Req: Entry COC(=O)[C@@]1(Cc2ccc(OC)cc2)[C@H]2c3cc(C(=O)N4CCCC4)n(Cc4ccc(S(C)(=O)=O)cc4)c3C[C@H]2CN1C(=O)c1ccccc1 , system Follistatin (Homo sapiens): what composite z-score was measured?
Resp: 0.0078

Req: Please state recorded composite z-score (tested on Follistatin (Homo sapiens)) of C=CCC(OC(C)=O)[C@@H]1[C@@H](N(Cc2cc3ccccc3o2)C(=O)c2ccc(-c3ccccc3)cc2)c2cc(OCCCO)ccc2N1C(=O)Cc1ccc(OC)cc1 (some centres not stated)
Resp: 0.453
